# assay-target: Cytochrome P450 1A2 (Homo sapiens) (UniProt P05177)
# Sequence (P05177 whole entry, looked up): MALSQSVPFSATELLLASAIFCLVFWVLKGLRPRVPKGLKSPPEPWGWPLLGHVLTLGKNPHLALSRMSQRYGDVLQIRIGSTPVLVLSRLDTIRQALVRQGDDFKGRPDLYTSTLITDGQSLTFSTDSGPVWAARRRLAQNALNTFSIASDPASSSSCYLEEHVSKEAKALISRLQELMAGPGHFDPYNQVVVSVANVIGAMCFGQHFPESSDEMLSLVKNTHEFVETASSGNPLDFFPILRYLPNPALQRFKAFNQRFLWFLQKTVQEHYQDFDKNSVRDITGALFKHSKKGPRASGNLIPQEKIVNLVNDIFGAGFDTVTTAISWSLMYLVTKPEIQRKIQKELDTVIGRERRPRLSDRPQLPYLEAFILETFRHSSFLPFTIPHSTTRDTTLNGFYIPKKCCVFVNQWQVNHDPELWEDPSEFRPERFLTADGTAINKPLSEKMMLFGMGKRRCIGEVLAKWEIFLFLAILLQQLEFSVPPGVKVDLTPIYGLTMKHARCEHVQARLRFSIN
# assay-summary: p450-cyp1a2 (AID 410)
# condition-notes: recombinant CYP1A2, luciferin-ME demethylation, luminescence; series mostly up to 25.6 µM
# Method: The P450 gene superfamily is involved in metabolism and the clearance of xenobiotics. This assay used human CYP1A2 to measure the demethylation of luciferin 6' methyl ether (Luciferin-ME; Promega-Glo) to luciferin. The luciferin is then measured by luminescence after the addition of a luciferase detection regeant. Luciferin-ME concentration in the assay was equal to its Km for CYP1A2. NCGC Assay Protocol Summary: […]
Records with an inconclusive call do not appear. The source made the active and inactive calls. Calls come from the whole dose curve.
Outcome (select one): active, inactive

structure-smiles: Cc1c(Cl)cccc1Nc1ccccc1C(=O)O
qualitative-label: active
//
structure-smiles: CCn1cc(C(=O)O)c(=O)c2cnc(N3CCNCC3)nc21
qualitative-label: inactive
//
structure-smiles: CCCCN(CCCC)CCCOC(=O)c1ccc(N)cc1
qualitative-label: active
//
structure-smiles: CN(C)CCCN1c2ccccc2CCc2ccccc21
qualitative-label: inactive
//
structure-smiles: CNCCCC1c2ccccc2C=Cc2ccccc21
qualitative-label: inactive
//
structure-smiles: c1ccc(CN(CC2=NCCN2)c2ccccc2)cc1
qualitative-label: inactive
//
structure-smiles: CC1=C(CC(=O)O)c2cc(F)ccc2/C1=C\c1ccc(S(C)(=O)=O)cc1
qualitative-label: active
//
structure-smiles: CCOc1ccc2ccccc2c1C(=O)N[C@@H]1C(=O)N2[C@@H]1SC(C)(C)[C@@H]2C(=O)O
qualitative-label: inactive
//
structure-smiles: CC1(C)OC(=O)NC1=O
qualitative-label: inactive
//
structure-smiles: COc1ccc2c(c1)C(=O)N(CCc1ccc(S(=O)(=O)NC(=O)NC3CCCCC3)cc1)C(=O)C2(C)C
qualitative-label: inactive

Would you mind telling me which call this test gave COc1ccc(Cl)cc1C(=O)NCCc1ccc(S(=O)(=O)NC(=O)NC2CCCCC2)cc1 ?
inactive

In this assay, the call recorded for Nc1ccc(S(=O)(=O)Nc2nccs2)cc1 was what?
inactive

* * *

# assay-target: Muscarinic acetylcholine receptor M1 (Rattus norvegicus) (UniProt P08482)
# Sequence (P08482 whole entry, looked up): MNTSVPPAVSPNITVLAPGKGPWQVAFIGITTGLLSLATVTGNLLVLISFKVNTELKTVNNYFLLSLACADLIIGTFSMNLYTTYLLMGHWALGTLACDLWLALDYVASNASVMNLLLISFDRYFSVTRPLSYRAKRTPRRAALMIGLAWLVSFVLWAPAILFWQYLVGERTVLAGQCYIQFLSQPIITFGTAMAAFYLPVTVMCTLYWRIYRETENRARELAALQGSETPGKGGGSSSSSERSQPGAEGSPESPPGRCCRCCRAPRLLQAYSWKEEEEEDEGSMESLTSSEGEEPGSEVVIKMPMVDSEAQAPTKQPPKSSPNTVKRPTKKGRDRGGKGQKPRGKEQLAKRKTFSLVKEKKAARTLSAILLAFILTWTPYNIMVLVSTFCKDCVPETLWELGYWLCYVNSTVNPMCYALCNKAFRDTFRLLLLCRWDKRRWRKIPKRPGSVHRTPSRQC
# assay-summary: qHTS Assay for Antagonists of Acetylcholine Muscarinic M1 Receptor: Measurement of IP-One Response (AID 944); note: nearly all actives have a fitted effect of over 75% in size
# condition-notes: CHO-M1 cells, IP-One HTRF, antagonist mode; series mostly up to 46.1 µM
Results filed as inconclusive are left out. Active and inactive are the calls of the source. Calls come from the whole dose curve; as a rule, active = well fitted inhibition curve with a large enough effect; inconclusive = small, poorly fitted or top-dose-only effect; inactive = no such curve, though single readings can be large or run the other way.
Permitted responses: active, inactive

Past entries and their recorded results:
structure-smiles: N=c1c[n+](N2CCOCC2)[n-]o1
qualitative-label: inactive
//
structure-smiles: NC(=O)c1ncn([C@@H]2O[C@H](CO)[C@@H](O)[C@H]2O)n1
qualitative-label: inactive

Turning now to a further record.
// outcome(item) with item = Cc1cc(N)c2ccccc2[n+]1CCCCCCCCCC[n+]1c(C)cc(N)c2ccccc21
active

* * *

# assay-summary: qHTS of pediatric cancer cell lines to identify multiple opportunities for drug repurposing: Primary screen for SK-N-MC cells (AID 1347093)
# condition-notes: SK-N-MC viability, CellTiter-Glo luminescence, 48 h; series mostly up to 46 µM
Results filed as inconclusive are left out. Activity calls are given as the source filed them. Calls come from the whole dose curve; as a rule, active = well fitted cell-killing curve with a large enough effect; inconclusive = small, poorly fitted or top-dose-only effect; inactive = no such curve, though single readings can be large or run the other way.
Entry note: the call must match one of T = active, F = inactive

Known results for compounds:
compound: CCCCCCCCCCCCCCCC(=O)NCCO
qualitative-label: F
//
compound: CCOC(CN1CCN(CC(C)C(=O)c2ccccc2)CC1)c1ccccc1 (stereo not given)
qualitative-label: F
//
compound: NS(=O)(=O)c1cc2c(cc1C(F)(F)F)NC(Cc1ccccc1)NS2(=O)=O (stereo not given)
qualitative-label: F

Per the assay record, what outcome was assigned to O=C(O)[C@H](O)c1ccccc1 ?
F

* * *

# Test system: DFO2036
# assay-summary: qHTS profiling for inhibitors of Plasmodium falciparum proliferation (AID 504749); note: nearly all actives have a fitted effect of over 60% in size
# condition-notes: P. falciparum in erythrocytes, SYBR Green DNA, 72 h; series mostly up to 28.7 µM
Inconclusive results are not listed. Activity calls are given as the source filed them. The call rests on the fitted dose curve; in most records, active means well fitted inhibition curve with a large enough effect; inconclusive means small, poorly fitted or top-dose-only effect; inactive means flat fitted curve, though single readings scatter.
Select the matching outcome among t (active), f (inactive)

Hi, sorry to bother you, what did the test record for CCCCC(CC)COC(=O)c1ccccc1O (stereo not given) ?
f

GET /call?item= Cc1ccc2nc(N)[nH]c(=O)c2c1Sc1ccncc1 returns the recorded outcome of this test.
t

Can you look up the reported call for O=C(O)CC(O)C(=O)O (stereo not given) for me?
f

Given OCc1cc(C(O)CNCCCCCCOCCCCc2ccccc2)ccc1O (stereo not given) , state the outcome it received in this test.
f

Please let me know the test result on file for CC(=O)NC(Cc1ccccc1)C(=O)O (stereo not given) .
f

Field: outcome | Entry: O=C1OC(OC(=O)c2cccnc2Nc2cccc(C(F)(F)F)c2)c2ccccc21 (stereo not given)
f

Would you mind telling me which call this test gave O=C(O)c1ccccc1O ?
f

Can you look up the reported call for CCCCN(CCCC)CC(O)c1cc(Cl)cc2c1-c1ccc(Cl)cc1/C2=C/c1ccc(Cl)cc1 (stereo not given) for me?
t

# lookup: test call for COc1cc(C)c(Cc2cnc(N)nc2N)cc1OC
f

* * *

# System: CAOV3
# assay-summary: Primary qHTS to identify gynecologic anti-cancer compounds using libraries of approved drugs and bioactive compounds (AID 1345084); note: nearly all actives have a fitted effect of over 55% in size
# condition-notes: Gynecologic cancer cell panel viability, ATPlite luminescence, 48 h; series mostly up to 57.5 µM
Inconclusive results are not listed. Activity calls are given as the source filed them. The call rests on the fitted dose curve; in most records, active means well fitted cell-killing curve with a large enough effect; inconclusive means small, poorly fitted or top-dose-only effect, or effect the other way; inactive means flat fitted curve, though single readings scatter.
Respond with a class label; see active, inactive

structure-smiles: O=C(O)c1ccccn1
qualitative-label: inactive
--
structure-smiles: Nc1ccc(S(=O)(=O)Nc2ccc(Cl)nn2)cc1
qualitative-label: inactive
--
structure-smiles: CCOc1ccc2ccccc2c1C(=O)N[C@@H]1C(=O)N2[C@@H]1SC(C)(C)[C@@H]2C(=O)O
qualitative-label: inactive
--
structure-smiles: CC(C)C(=O)c1c(C(C)C)nn2ccccc12
qualitative-label: inactive

Could you check what this test reported for CCN(CC)CCNC(=O)c1c(C)[nH]c(/C=C2\C(=O)Nc3ccc(F)cc32)c1C ?
active

* * *

# System: 3D7
# assay-summary: qHTS profiling for inhibitors of Plasmodium falciparum proliferation (AID 504749); note: nearly all actives have a fitted effect of over 60% in size
# condition-notes: P. falciparum in erythrocytes, SYBR Green DNA, 72 h; series mostly up to 28.7 µM
Results filed as inconclusive are left out. Activity calls are given as the source filed them. Calls come from the whole dose curve; as a rule, active = well fitted inhibition curve with a large enough effect; inconclusive = small, poorly fitted or top-dose-only effect; inactive = flat fitted curve, though single readings scatter.
Valid outcomes are listed here; reply with one: active, inactive

compound: CCCc1c(OCCCCc2nn[nH]n2)ccc(C(C)=O)c1O
qualitative-label: inactive

compound: CCN(CC)CCNC(C(=O)OCCC(C)C)c1ccccc1 (stereo unspecified)
qualitative-label: inactive

compound: CCCCCCCCCCCCCCCCCCOCC(O)CO (stereo unspecified)
qualitative-label: inactive

// return assay outcome for Cc1c(O)cccc1C(=O)N[C@@H](CSc1ccccc1)[C@H](O)CN1C[C@H]2CCCC[C@H]2C[C@H]1C(=O)NC(C)(C)C
active

Entry COCCOC(=O)C1=C(C)NC(C)=C(C(=O)OC/C=C/c2ccccc2)C1c1cccc([N+](=O)[O-])c1 (stereo unspecified) : call = ?
active

Give the logged outcome of this assay for the following compound: Cc1cc(CC(=O)O)n(C)c1C(=O)c1ccc(Cl)cc1
inactive

* * *

# assay-summary: qHTS of pediatric cancer cell lines to identify multiple opportunities for drug repurposing: Primary screen for OHS-50 cells (AID 1347103); note: nearly all actives have a fitted effect of over 40% in size
# condition-notes: OHS-50 osteosarcoma viability, CellTiter-Glo luminescence, 48 h; series mostly up to 57.3 µM
Records with an inconclusive call do not appear. Activity calls are given as the source filed them. Calls come from the whole dose curve; as a rule, active = well fitted cell-killing curve with a large enough effect; inconclusive = small, poorly fitted or top-dose-only effect; inactive = no such curve, though single readings can be large or run the other way.
Hi! Could you answer with just one of these? yes for active, no for inactive

Hi, do you know how Nc1ccc(S(=O)(=O)NC(=O)c2ccccc2)cc1 came out in this test?
no

Just curious, what result did CN1CCC[C@@H]1Cc1c[nH]c2ccc(CCS(=O)(=O)c3ccccc3)cc12 get here?
no

Give the logged outcome of this assay for the following molecule: O=C(O)COc1nn(Cc2ccccc2)c2ccccc12
no

* * *

# Test system: P94_40
# assay-summary: qHTS profiling for inhibitors of Plasmodium falciparum proliferation (AID 504749); note: nearly all actives have a fitted effect of over 60% in size
# condition-notes: P. falciparum in erythrocytes, SYBR Green DNA, 72 h; series mostly up to 28.7 µM
Results filed as inconclusive are left out. Active and inactive are the calls of the source. Calls come from the whole dose curve; as a rule, active = well fitted inhibition curve with a large enough effect; inconclusive = small, poorly fitted or top-dose-only effect; inactive = flat fitted curve, though single readings scatter.
Outcome field: choose from active, inactive

These solved cases illustrate the format of a correct answer.
molecule: CC(CN1c2ccccc2Sc2ccccc21)N(C)C (stereo not given)
assay-target: P94_40
qualitative-label: inactive
//
molecule: CC(C)(C)C(=O)NCCCC(=O)O
assay-target: P94_40
qualitative-label: inactive
//
molecule: CCCCN(CCCC)CCCOC(=O)c1ccc(N)cc1
assay-target: P94_40
qualitative-label: inactive
//
molecule: CCCCCCCCCCCCOS(=O)(=O)O
assay-target: P94_40
qualitative-label: inactive
//
molecule: CCN(CC)CCNC(=O)c1c(C)[nH]c(/C=C2\C(=O)Nc3ccc(F)cc32)c1C
assay-target: P94_40
qualitative-label: active

Which outcome was entered for the molecule CC(O)CN(CCN(CC(C)O)CC(C)O)CC(C)O (stereo not given) in this test?
inactive

Fill in: this test's call for CC[C@@]1(c2ccccc2)NC(=O)N(C)C1=O is ___
inactive

Outcome logged for [O-][n+]1cccc(CO)c1 in this assay:
inactive

Hey, what did the test say about NCCNCCNCCNCCN ?
inactive

Please indicate how the test categorized CCCCc1ncc(/C=C(\Cc2cccs2)C(=O)O)n1Cc1ccc(C(=O)O)cc1 .
inactive
